# Measurement Target: T1, HUMAN B7H3 (Biacore analyte) (human, UniProt Q5ZPR3 29-461, limits assumed)
# T1 construct: also called hB7H3
# T1 sequence (looked up): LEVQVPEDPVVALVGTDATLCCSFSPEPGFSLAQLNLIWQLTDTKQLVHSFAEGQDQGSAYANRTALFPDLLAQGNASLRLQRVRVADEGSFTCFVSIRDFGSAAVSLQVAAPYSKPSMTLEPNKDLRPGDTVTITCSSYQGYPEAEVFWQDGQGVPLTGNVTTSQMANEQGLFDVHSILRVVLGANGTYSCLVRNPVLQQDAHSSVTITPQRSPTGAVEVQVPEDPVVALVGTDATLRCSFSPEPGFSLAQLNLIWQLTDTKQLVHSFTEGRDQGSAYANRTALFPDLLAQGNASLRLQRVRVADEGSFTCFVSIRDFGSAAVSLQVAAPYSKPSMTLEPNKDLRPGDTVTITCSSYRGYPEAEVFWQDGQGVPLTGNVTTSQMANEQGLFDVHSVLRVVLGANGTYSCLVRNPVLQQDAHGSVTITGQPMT
# Experiment Description: SPR, Biacore 8K, antibody captured, B7H3 as analyte, 1:1 binding
Measured Quantity: koff (s⁻¹)
Numbers only, in s⁻¹.

Prompt: Bench note: what koff did 10-G6-C4-B2_hVH3-VL3_PTM (antibody, V domains shown, humanized, PTM-optimized antibody from 10-G6-C4-B2) VH: EVQLVESGGGLVQPGGSLRLSCATSGFTLSDYYMSWVRQAPGKGLEWVGFMRNKANAYTTEYSASVRGRFTISRDTSKSSIYLQMNSLKTEDTAVYYCVRDREGRPFAYWGQGTLVTVSS VL: DIQMTQSPSSLSASVGDRVTITCKSSQSLLNAINQKNFLTWYQQKPGKAPKLLIYWASTRESGVPSRFSGSGSGTDFTLTISSLQPEDLATYYCQNDYTYPLTFGQGTKLEIK show?
Response: 1.02e-06
